Assay: AUC(0 to t) in Sprague-Dawley rat at 10 mg/kg, po
Format: ADME, organism-based
Parameters: dose 10 mg/kg
Settings: in vivo
result type: AUC(0-t) (ng·h/mL)
Respond numerically; units are ng·h/mL and should not be typed.

Answer with the recorded AUC(0-t) for the compound listed here: CNC(=O)c1cncc(-c2cnc(Cl)c(NS(=O)(=O)c3ccccc3)c2)c1
19300

---

Assay: Cmax in Sprague-Dawley rat at 10 mg/kg, po
Format: ADME, organism-based
Set-up: route oral, dose 10 mg/kg
Details: in vivo
result type: Cmax

Answer with the recorded Cmax for the compound listed here: CNC(=O)c1cncc(-c2cnc(Cl)c(NS(=O)(=O)c3ccccc3)c2)c1
4340 ng/mL

---

Assay: Tmax in mouse at 1 mg/kg, iv
Format: ADME, organism-based
Settings: in vivo
result type: Tmax
Answer shape: numeric part, then the unit.

Answer with the recorded Tmax for the compound listed here: CNC(=O)c1cncc(-c2cnc(Cl)c(NS(=O)(=O)c3ccccc3)c2)c1
1.8 min

---

Tested on: Plasmodium falciparum
Experiment: Antimalarial activity against sulphadoxine-resistant blood stage Plasmodium falciparum 3D7 infected in human O+ erythrocytes incubated for 72 hrs by SYBR Green 1 dye based fluorescence assay
Type: functional, organism-based
Settings: 3D7, Erythrocyte
result type: EC50 (µM)
Respond numerically; units are µM and should not be typed.

Example cases with answers are listed next.
# test smiles, EC50, µM
data = [
    ("CNC(=O)c1cncc(-c2cnc(Cl)c(NS(=O)(=O)c3ccccc3C(F)(F)F)c2)c1", 0.087),
    ("CNC(=O)c1cncc(-c2cnc(Cl)c(NS(=O)(=O)c3ccc(C)cc3)c2)c1", 0.039),
    ("O=S(=O)(Nc1cc(-c2cnc3[nH]ncc3c2)cnc1Cl)c1ccccc1", 4.67),
    ("CNC(=O)c1cncc(-c2cnc(Cl)c(NS(=O)(=O)c3ccccc3)c2)c1", 0.0251),
    ("NCCNC(=O)c1cncc(-c2cnc(Cl)c(NS(=O)(=O)c3ccccc3)c2)c1", 0.13),
]

Answer with the recorded EC50 for the molecule listed here: CNC(=O)c1cncc(-c2cnc(Cl)c(NS(=O)(=O)c3ccc(-c4ccccc4)cc3)c2)c1
5.88

Answer with the recorded EC50 for the molecule listed here: CNC(=O)c1cncc(-c2cnc(Cl)c(NS(=O)(=O)c3ccc(F)cc3F)c2)c1
3.4

Answer with the recorded EC50 for the molecule listed here: CCCS(=O)(=O)Nc1cc(-c2cncc(C(=O)NC)c2)cnc1Cl
0.48

Answer with the recorded EC50 for the molecule listed here: CNC(=O)c1cncc(-c2cnc(Cl)c(NS(=O)(=O)c3ccc(Cl)cc3)c2)c1
0.071

Answer with the recorded EC50 for the molecule listed here: O=S(=O)(Nc1cc(-c2cccnc2)cnc1Cl)c1ccccc1
4.71

Answer with the recorded EC50 for the molecule listed here: CNC(=O)c1cncc(-c2cnc(Cl)c(NS(=O)(=O)c3ccc(C)cc3C)c2)c1
0.039

Answer with the recorded EC50 for the molecule listed here: Cn1cc(-c2cnc(Cl)c(NS(=O)(=O)c3ccccc3)c2)cn1
1.49

Answer with the recorded EC50 for the molecule listed here: CNC(=O)c1cncc(-c2cnc(Cl)c(NS(=O)(=O)c3ccc(C(F)(F)F)cc3)c2)c1
0.13

Answer with the recorded EC50 for the molecule listed here: CNC(=O)c1cncc(-c2cnc(Cl)c(NS(=O)(=O)c3ccc(Cl)cc3Cl)c2)c1
0.12

Answer with the recorded EC50 for the molecule listed here: CC(=O)n1ccc2cc(-c3cnc(Cl)c(NS(=O)(=O)c4ccccc4)c3)cnc21
1.05

---

Assay: Apparent clearance in Sprague-Dawley rat at 10 mg/kg, po
Type: ADME, organism-based
Details: in vivo, read-out: CL(app) (converted)
result type: CL/F (mL/min/kg)
Respond numerically; units are mL/min/kg and should not be typed.

Answer with the recorded CL/F for the molecule listed here: CNC(=O)c1cncc(-c2cnc(Cl)c(NS(=O)(=O)c3ccccc3)c2)c1
8.33

---

Assay: Tmax in mouse at 10 mg/kg, po
Assay type: ADME, organism-based
Conditions: in vivo
result type: Tmax

Answer with the recorded Tmax for the compound listed here: CNC(=O)c1cncc(-c2cnc(Cl)c(NS(=O)(=O)c3ccccc3)c2)c1
11.4 min

---

Test: Half life in Sprague-Dawley rat at 1 mg/kg, iv
Type: ADME, organism-based
Conditions: in vivo
result type: half-life (h)
Respond numerically; units are h and should not be typed.

Answer with the recorded half-life for the molecule listed here: CNC(=O)c1cncc(-c2cnc(Cl)c(NS(=O)(=O)c3ccccc3)c2)c1
3.5

---

Test system: Plasmodium falciparum
Test: Antimalarial activity against sulphadoxine-resistant blood stage Plasmodium falciparum 3D7 infected in human O+ erythrocytes incubated for 72 hrs by SYBR Green 1 dye based fluorescence assay
Type: functional, organism-based
Settings: 3D7, Erythrocyte
Mark Satisfied only for EC50 values smaller than 4 µM; exact matches and larger values are Not satisfied.

Consider the worked cases shown below.
# test smiles, class assignment
rows = [
    ("CNC(=O)c1ccc(-c2cnc3cnc(C(=O)N(C)c4ccc(Cl)cc4)cn23)cc1", "Satisfied"),
    ("O=S(=O)(Nc1cc(-c2ccncc2)cnc1Cl)c1ccccc1", "Not satisfied"),
    ("CNC(=O)c1cccc(-c2cnc(Cl)c(NS(=O)(=O)c3ccccc3)c2)c1", "Not satisfied"),
    ("CNC(=O)c1cncc(-c2cnc(Cl)c(NS(=O)(=O)c3ccc4c(c3)CCO4)c2)c1", "Satisfied"),
    ("O=C(Nc1ccccc1)c1cncc(-c2cnc(Cl)c(NS(=O)(=O)c3ccccc3)c2)c1", "Satisfied"),
]

Does the reported EC50 of CNC(=O)c1cncc(-c2cnc(Cl)c(NS(=O)(=O)c3cccc(-c4ccccc4)c3)c2)c1 stay below 4 µM?
Not satisfied

Does the reported EC50 of CCS(=O)(=O)Nc1cc(-c2cncc(C(=O)NC)c2)cnc1Cl stay below 4 µM?
Satisfied

Does the reported EC50 of CNC(=O)c1cncc(-c2cnc(Cl)c(NS(=O)(=O)c3cccc(C(F)(F)F)c3)c2)c1 stay below 4 µM?
Satisfied

---

Experiment: Cmax in mouse at 1 mg/kg, iv
Assay type: ADME, organism-based
Parameters: route intravenous, dose 1 mg/kg
Details: in vivo
result type: Cmax (ng/mL)
Respond numerically; units are ng/mL and should not be typed.

Answer with the recorded Cmax for the compound listed here: CNC(=O)c1cncc(-c2cnc(Cl)c(NS(=O)(=O)c3ccccc3)c2)c1
718

---

Property: pEC50; scope: individual compounds
Tested on: Plasmodium falciparum
Assay: Antimalarial activity against pyrimethamine/chloroquine resistant Plasmodium falciparum PC26 infected in human O+ erythrocytes incubated for 72 hrs by SYBR Green 1 dye based fluorescence assay
Assay type: functional, organism-based
Settings: PC26, Erythrocyte
Value format note: pEC50 is -log10 of concentration (mol/L); just state the number.

# test smiles, result type, value observed
rows = [
    ("CNC(=O)c1cncc(-c2cnc(Cl)c(NS(=O)(=O)c3ccccc3)c2)c1", "pEC50", 7.36),
]

Lab note: next compound to report on.
Answer with the recorded pEC50 for the compound listed here: CNC(=O)c1ccc(-c2cnc3cnc(C(=O)N(C)c4ccc(Cl)cc4)cn23)cc1
7.26

---

System: Phosphatidylinositol 4-kinase beta (Homo sapiens) | Read-out: IC50
Sequence (Q9UBF8 whole entry): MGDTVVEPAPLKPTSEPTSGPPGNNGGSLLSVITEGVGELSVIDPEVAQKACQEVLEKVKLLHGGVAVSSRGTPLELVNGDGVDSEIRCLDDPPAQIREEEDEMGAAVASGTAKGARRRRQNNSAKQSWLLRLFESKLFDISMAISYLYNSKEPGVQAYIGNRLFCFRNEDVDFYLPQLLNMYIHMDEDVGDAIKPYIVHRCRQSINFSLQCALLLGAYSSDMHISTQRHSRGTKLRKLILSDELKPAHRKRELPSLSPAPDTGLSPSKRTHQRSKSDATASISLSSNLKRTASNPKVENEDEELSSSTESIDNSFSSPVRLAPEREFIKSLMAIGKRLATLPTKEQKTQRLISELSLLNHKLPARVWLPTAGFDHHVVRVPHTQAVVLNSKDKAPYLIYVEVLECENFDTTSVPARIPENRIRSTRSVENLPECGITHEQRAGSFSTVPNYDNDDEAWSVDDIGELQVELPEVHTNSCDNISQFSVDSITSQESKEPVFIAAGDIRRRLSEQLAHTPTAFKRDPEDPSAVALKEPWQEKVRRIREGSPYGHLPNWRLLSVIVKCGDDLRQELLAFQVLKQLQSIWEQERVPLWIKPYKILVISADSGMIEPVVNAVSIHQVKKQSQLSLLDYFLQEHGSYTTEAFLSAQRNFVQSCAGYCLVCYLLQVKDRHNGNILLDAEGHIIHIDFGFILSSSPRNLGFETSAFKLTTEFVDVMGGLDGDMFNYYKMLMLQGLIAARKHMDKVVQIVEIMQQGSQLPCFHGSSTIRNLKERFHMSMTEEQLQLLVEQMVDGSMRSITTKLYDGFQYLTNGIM

Retrieve IC50 on Phosphatidylinositol 4-kinase beta (Homo sapiens); query CNC(=O)c1ccc(-c2cnc3cnc(C(=O)N(C)c4ccc(Cl)cc4)cn23)cc1
> 10000 nM

Retrieve IC50 on Phosphatidylinositol 4-kinase beta (Homo sapiens); query CNC(=O)c1cncc(-c2cnc(Cl)c(NS(=O)(=O)c3ccccc3)c2)c1
433 nM

---

Test: Mean residence time (0 to t) in mouse at 1 mg/kg, iv
Type: ADME, organism-based
Settings: in vivo
result type: MRT last (h)
Respond numerically; units are h and should not be typed.

Answer with the recorded MRT last for the compound listed here: CNC(=O)c1cncc(-c2cnc(Cl)c(NS(=O)(=O)c3ccccc3)c2)c1
3.1

---

Test: Apparent clearance in Sprague-Dawley rat at 1 mg/kg, iv
Format: ADME, organism-based
Conditions: in vivo, read-out: CL(app) (converted)
result type: clearance (L/h/kg)
Respond numerically; units are L/h/kg and should not be typed.

Answer with the recorded clearance for the molecule listed here: CNC(=O)c1cncc(-c2cnc(Cl)c(NS(=O)(=O)c3ccccc3)c2)c1
0.5

---

Assay: Mean residence time (0 to t) in Sprague-Dawley rat at 10 mg/kg, po
Type: ADME, organism-based
Conditions: in vivo
result type: MRT last (h)
Respond numerically; units are h and should not be typed.

Answer with the recorded MRT last for the molecule listed here: CNC(=O)c1cncc(-c2cnc(Cl)c(NS(=O)(=O)c3ccccc3)c2)c1
4.3

---

Target: Phosphatidylinositol 4,5-bisphosphate 3-kinase catalytic subunit alpha isoform (Homo sapiens)
Sequence (P42336 whole entry, canonical isoform): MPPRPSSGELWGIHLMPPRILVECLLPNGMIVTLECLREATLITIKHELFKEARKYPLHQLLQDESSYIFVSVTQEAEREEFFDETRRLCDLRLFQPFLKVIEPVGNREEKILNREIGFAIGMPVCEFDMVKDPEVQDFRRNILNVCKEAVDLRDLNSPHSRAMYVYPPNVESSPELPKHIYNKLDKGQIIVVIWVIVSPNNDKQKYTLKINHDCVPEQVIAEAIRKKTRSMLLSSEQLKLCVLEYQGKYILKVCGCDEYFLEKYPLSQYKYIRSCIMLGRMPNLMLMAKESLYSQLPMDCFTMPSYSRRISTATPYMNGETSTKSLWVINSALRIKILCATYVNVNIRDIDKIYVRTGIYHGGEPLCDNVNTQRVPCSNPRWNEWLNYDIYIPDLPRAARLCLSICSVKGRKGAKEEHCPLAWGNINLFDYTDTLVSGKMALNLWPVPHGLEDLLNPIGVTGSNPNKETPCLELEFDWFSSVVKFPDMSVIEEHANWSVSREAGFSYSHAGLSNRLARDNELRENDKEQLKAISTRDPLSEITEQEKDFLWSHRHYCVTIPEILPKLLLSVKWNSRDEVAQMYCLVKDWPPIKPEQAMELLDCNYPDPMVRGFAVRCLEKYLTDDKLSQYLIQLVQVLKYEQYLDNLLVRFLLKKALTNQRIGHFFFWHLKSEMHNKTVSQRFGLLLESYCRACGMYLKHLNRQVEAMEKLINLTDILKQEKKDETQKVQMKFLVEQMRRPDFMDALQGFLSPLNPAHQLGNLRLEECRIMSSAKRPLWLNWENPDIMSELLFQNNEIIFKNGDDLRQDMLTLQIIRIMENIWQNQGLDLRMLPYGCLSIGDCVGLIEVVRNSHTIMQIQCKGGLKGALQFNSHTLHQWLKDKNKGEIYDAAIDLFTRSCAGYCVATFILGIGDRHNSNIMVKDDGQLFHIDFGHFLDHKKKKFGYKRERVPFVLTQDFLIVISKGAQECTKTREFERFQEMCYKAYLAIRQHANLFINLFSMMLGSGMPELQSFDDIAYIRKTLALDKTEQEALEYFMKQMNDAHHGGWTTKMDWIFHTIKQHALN
Assay: Inhibition of human PI3Kalpha by ADP-Glo kinase assay
result type: pIC50
Value format note: pIC50 is -log10 of concentration (mol/L); just state the number.

Answer with the recorded pIC50 for the molecule listed here: CNC(=O)c1cncc(-c2cnc(Cl)c(NS(=O)(=O)c3ccccc3)c2)c1
6.72

---

Assay: Half life in mouse at 10 mg/kg, po
Assay type: ADME, organism-based
Settings: in vivo
result type: half-life
Answer shape: numeric part, then the unit.

Answer with the recorded half-life for the molecule listed here: CNC(=O)c1cncc(-c2cnc(Cl)c(NS(=O)(=O)c3ccccc3)c2)c1
3.6 h
